# credit: paper PMC2854646

Target: E1 (ubiquitin-activating enzyme) (Homo sapiens)
Sequence (P22314 2-1058): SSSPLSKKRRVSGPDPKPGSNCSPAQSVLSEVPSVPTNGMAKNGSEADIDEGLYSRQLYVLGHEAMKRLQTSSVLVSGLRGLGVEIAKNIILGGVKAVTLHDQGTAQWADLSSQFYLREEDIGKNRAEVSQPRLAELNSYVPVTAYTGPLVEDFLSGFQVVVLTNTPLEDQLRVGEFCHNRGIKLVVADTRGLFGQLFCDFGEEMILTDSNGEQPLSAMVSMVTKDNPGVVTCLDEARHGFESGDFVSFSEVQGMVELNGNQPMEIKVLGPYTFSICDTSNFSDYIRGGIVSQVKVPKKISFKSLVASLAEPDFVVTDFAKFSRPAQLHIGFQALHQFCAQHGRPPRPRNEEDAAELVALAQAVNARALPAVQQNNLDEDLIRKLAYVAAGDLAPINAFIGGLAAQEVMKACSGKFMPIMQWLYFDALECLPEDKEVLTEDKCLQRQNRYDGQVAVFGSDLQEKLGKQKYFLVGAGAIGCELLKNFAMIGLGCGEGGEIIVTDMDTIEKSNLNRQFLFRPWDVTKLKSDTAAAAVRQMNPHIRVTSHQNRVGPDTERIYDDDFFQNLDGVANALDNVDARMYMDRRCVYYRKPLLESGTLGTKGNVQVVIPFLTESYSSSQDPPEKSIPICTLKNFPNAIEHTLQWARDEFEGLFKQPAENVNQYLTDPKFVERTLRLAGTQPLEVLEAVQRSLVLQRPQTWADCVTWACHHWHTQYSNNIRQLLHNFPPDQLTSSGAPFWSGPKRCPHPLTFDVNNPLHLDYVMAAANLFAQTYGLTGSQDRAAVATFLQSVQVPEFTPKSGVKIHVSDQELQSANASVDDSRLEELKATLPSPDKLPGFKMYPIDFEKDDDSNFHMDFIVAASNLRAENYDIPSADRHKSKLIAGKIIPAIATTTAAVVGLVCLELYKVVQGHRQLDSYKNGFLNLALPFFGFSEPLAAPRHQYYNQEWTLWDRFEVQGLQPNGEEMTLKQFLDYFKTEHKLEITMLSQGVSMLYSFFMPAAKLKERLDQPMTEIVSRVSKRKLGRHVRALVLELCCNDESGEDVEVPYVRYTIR
Test: ubiquitin~E1 thioester immunoblot
pIC50: −log10 of the molar value.

molecule	pIC50
CCOC(=O)N1CCN(/[N+]([O-])=N/Oc2ccc([N+](=O)[O-])cc2[N+](=O)[O-])CC1 [JS-K]	~5.70
